// reported IC50 for each item listed
# Tested on: A549
# assayText: Cytotoxicity against human A549 cells after 48 hrs by MTT assay
# Format: functional, cell-based
# setupConditions: A549, 48 h

compound	assaySystem	censoringOperator	IC50 / µM
COc1cc([C@@H]2c3cc4c(cc3[C@@H](NC(=S)Nc3ccccc3C(F)(F)F)[C@H]3COC(=O)[C@H]23)OCO4)cc(OC)c1OC	A549	>	100
COc1cc([C@@H]2c3cc4c(cc3[C@@H](O[C@@H]3O[C@@H]5CO[C@@H](C)O[C@H]5[C@H](O)[C@H]3O)[C@H]3COC(=O)[C@H]23)OCO4)cc(OC)c1O [ETOPOSIDE]	A549	=	38.5
COc1ccc(NC(=S)N[C@@H]2c3cc4c(cc3[C@@H](c3cc(OC)c(OC)c(OC)c3)[C@H]3C(=O)OC[C@@H]32)OCO4)cc1OC	A549	=	65.5
COc1cc([C@@H]2c3cc4c(cc3[C@@H](NC(=S)Nc3ccc([N+](=O)[O-])cc3)[C@H]3COC(=O)[C@H]23)OCO4)cc(OC)c1OC	A549	=	44
COc1cc([C@@H]2c3cc4c(cc3[C@@H](NC(=S)Nc3ccc(C(C)C)cc3)[C@H]3COC(=O)[C@H]23)OCO4)cc(OC)c1OC	A549	=	62
CCOC(=O)c1ccc(NC(=S)N[C@@H]2c3cc4c(cc3[C@@H](c3cc(OC)c(OC)c(OC)c3)[C@H]3C(=O)OC[C@@H]32)OCO4)cc1	A549	>	100
COc1cc([C@@H]2c3cc4c(cc3[C@H](O)[C@H]3COC(=O)[C@H]23)OCO4)cc(OC)c1OC	A549	=	129
COc1ccc(NC(=S)N[C@@H]2c3cc4c(cc3[C@@H](c3cc(OC)c(OC)c(OC)c3)[C@H]3C(=O)OC[C@@H]32)OCO4)c([N+](=O)[O-])c1	A549	=	35.1
COc1cc([C@@H]2c3cc4c(cc3[C@@H](NC(=S)Nc3ccc(C(F)(F)F)cc3)[C@H]3COC(=O)[C@H]23)OCO4)cc(OC)c1OC	A549	=	14.8
COc1ccc(NC(=S)N[C@@H]2c3cc4c(cc3[C@@H](c3cc(OC)c(OC)c(OC)c3)[C@H]3C(=O)OC[C@@H]32)OCO4)cc1	A549	=	37.6

====

# Tested on: DU-145
# assayText: Cytotoxicity against human DU145 cells after 48 hrs by MTT assay
# Type: functional, cell-based
# setupConditions: DU-145, 48 h
pIC50: −log10 of the molar value.

compound	assaySystem	pIC50
COc1cc([C@@H]2c3cc4c(cc3[C@@H](NC(=S)Nc3ccc(Cl)c(Cl)c3)[C@H]3COC(=O)[C@H]23)OCO4)cc(OC)c1OC	DU-145	4.85
COc1ccc(NC(=S)N[C@@H]2c3cc4c(cc3[C@@H](c3cc(OC)c(OC)c(OC)c3)[C@H]3C(=O)OC[C@@H]32)OCO4)cc1OC	DU-145	4.23
COc1cc([C@@H]2c3cc4c(cc3[C@@H](NC(=S)Nc3ccc(C(F)(F)F)cc3)[C@H]3COC(=O)[C@H]23)OCO4)cc(OC)c1OC	DU-145	5.71
COc1ccc(NC(=S)N[C@@H]2c3cc4c(cc3[C@@H](c3cc(OC)c(OC)c(OC)c3)[C@H]3C(=O)OC[C@@H]32)OCO4)c([N+](=O)[O-])c1	DU-145	4.91
COc1cc([C@@H]2c3cc4c(cc3[C@@H](NC(=S)Nc3ccccc3F)[C@H]3COC(=O)[C@H]23)OCO4)cc(OC)c1OC	DU-145	4.20
COc1cc([C@@H]2c3cc4c(cc3[C@@H](NC(=S)Nc3cccc(C(F)(F)F)c3)[C@H]3COC(=O)[C@H]23)OCO4)cc(OC)c1OC	DU-145	4.68
COc1ccc(NC(=S)N[C@@H]2c3cc4c(cc3[C@@H](c3cc(OC)c(OC)c(OC)c3)[C@H]3C(=O)OC[C@@H]32)OCO4)cc1	DU-145	6.30
CCOC(=O)c1ccc(NC(=S)N[C@@H]2c3cc4c(cc3[C@@H](c3cc(OC)c(OC)c(OC)c3)[C@H]3C(=O)OC[C@@H]32)OCO4)cc1	DU-145	5.63
COc1cc([C@@H]2c3cc4c(cc3[C@@H](NC(=S)Nc3c(C)cc(C)cc3C)[C@H]3COC(=O)[C@H]23)OCO4)cc(OC)c1OC	DU-145	4.98
COc1cc([C@@H]2c3cc4c(cc3[C@@H](NC(=S)Nc3ccc(C(C)C)cc3)[C@H]3COC(=O)[C@H]23)OCO4)cc(OC)c1OC	DU-145	4.22
COc1cc([C@@H]2c3cc4c(cc3[C@@H](NC(=S)Nc3ccc([N+](=O)[O-])cc3)[C@H]3COC(=O)[C@H]23)OCO4)cc(OC)c1OC	DU-145	5.10
COc1cc([C@@H]2c3cc4c(cc3[C@@H](NC(=S)Nc3ccccc3C(F)(F)F)[C@H]3COC(=O)[C@H]23)OCO4)cc(OC)c1OC	DU-145	5.63
COc1cc([C@@H]2c3cc4c(cc3[C@@H](O[C@@H]3O[C@@H]5CO[C@@H](C)O[C@H]5[C@H](O)[C@H]3O)[C@H]3COC(=O)[C@H]23)OCO4)cc(OC)c1O [ETOPOSIDE]	DU-145	5.28
